Here, each record is paired with measured IC50 data.
molecular target: mTORC1 (Homo sapiens, UniProt P42345+P62942); construct: endogenous in cells; test: mTORC1 inhibition in PC-3 cells, AlphaLISA of p70S6K pT389 levels; settings: mTORC1 as measured by inhibition of p70S6K pT389 levels, read-out: mTROC1 IC50

MOLECULE | IC50
COCCO[C@H]1C[C@@H]2CC[C@@H](C)[C@@](O)(O2)C(=O)C(=O)N2CCCCC2C(=O)O[C@H]([C@H](C)C[C@@H]2CC[C@@H](OCCCN3CCN(C)CC3)[C@H](OC)C2)CC(=O)[C@H](C)/C=C(\C)[C@@H](O)[C@@H](OC)C(=O)[C@H](C)C[C@H](C)/C=C/C=C/C=C/1C (relative stereo) | < 0.8 nM
CO[C@@H]1C[C@H](C[C@@H](C)[C@@H]2CC(=O)[C@H](C)/C=C(\C)[C@@H](O)[C@@H](OC)C(=O)[C@H](C)C[C@H](C)/C=C/C=C/C=C(\C)[C@@H](OCCc3ccccc3)C[C@@H]3CC[C@@H](C)[C@@](O)(O3)C(=O)C(=O)N3CCCC[C@H]3C(=O)O2)CC[C@H]1O | < 0.8 nM
CO[C@@H]1C[C@H](C[C@@H](C)[C@@H]2CC(=O)[C@H](C)/C=C(\C)[C@@H](O)[C@@H](OC)C(=O)[C@H](C)C[C@H](C)/C=C/C=C/C=C(\C)[C@H](OC3CC3)C[C@@H]3CC[C@@H](C)[C@@](O)(O3)C(=O)C(=O)N3CCCC[C@H]3C(=O)O2)CC[C@H]1OCCO | 0.8 to 1.5 nM
CO[C@@H]1C[C@H](C[C@@H](C)[C@@H]2CC(=O)[C@H](C)/C=C(\C)[C@@H](O)[C@@H](OC)C(=O)[C@H](C)C[C@H](C)/C=C/C=C/C=C(\C)[C@@H](OC3CC3)C[C@@H]3CC[C@@H](C)[C@@](O)(O3)C(=O)C(=O)N3CCCC[C@H]3C(=O)O2)CC[C@H]1O | < 0.8 nM
CO[C@@H]1C[C@H](C[C@@H](C)[C@@H]2CC(=O)[C@H](C)/C=C(\C)[C@@H](O)[C@@H](OC)C(=O)[C@H](C)C[C@H](C)/C=C/C=C/C=C(\C)[C@@H](OCCOCCO)C[C@@H]3CC[C@@H](C)[C@@](O)(O3)C(=O)C(=O)N3CCCC[C@H]3C(=O)O2)CC[C@H]1O | < 0.8 nM
COCCO[C@H]1C[C@@H]2CC[C@@H](C)[C@@](O)(O2)C(=O)C(=O)N2CCCC[C@H]2C(=O)O[C@H]([C@H](C)C[C@@H]2CC[C@@H](OCCO)[C@H](OC)C2)CC(=O)[C@H](C)/C=C(\C)[C@@H](O)[C@@H](OC)C(=O)[C@H](C)C[C@H](C)/C=C/C=C/C=C/1C | < 0.8 nM
COCCO[C@@H]1C[C@@H]2CC[C@@H](C)[C@@](O)(O2)C(=O)C(=O)N2CCCC[C@H]2C(=O)O[C@H]([C@H](C)C[C@@H]2CC[C@@H](OCCCO)[C@H](OC)C2)CC(=O)[C@H](C)/C=C(\C)[C@@H](O)[C@@H](OC)C(=O)[C@H](C)C[C@H](C)/C=C/C=C/C=C/1C | > 1.5 nM
